- Test system: S. aureus ATCC 25923
- ASSAY_TEXT: Broth microdilution assay, S. aureus
- Format: cell-based, Staphylococcus aureus
- RUN_PARAMETERS: 50 µM, 24 h, inhibition of growth, mean ± SD
For each entry below, report its Inhibitory effect (%) S. aureus ATCC 25923 value.
Report the value in % with no unit label.

Input line: # get_value(readout='Inhibitory effect (%) S. aureus ATCC 25923', item= CCCC(=O)OCC12CCC3(C(C)C)C1=C1C(CC4C5(C)CCC(OC(=O)CCC)C(C)(C)C5CCC4(C)C1(C)CC2)n1c(=O)n(C)c(=O)n13 (stereo not drawn) )
Output line: 2.5

Input line: # Inhibitory effect (%) S. aureus ATCC 25923 lookup, item CCCCn1c(=O)n2n(c1=O)C1(C(C)C)CCC3(COC(C)=O)CCC4(C)C(=C31)C2CC1C2(C)CCC(OC(C)=O)C(C)(C)C2CCC14C (stereo not drawn)
Output line: 1.5

Input line: Inhibitory effect (%) S. aureus ATCC 25923 for C=C(C)C1CCC2(COC(C)=O)CCC3(C)C(CCC4C5(C)CCC(OC(C)=O)C(C)(C)C5CCC43C)C12 (stereo not drawn) ?
Output line: 13.8

Input line: // query Inhibitory effect (%) S. aureus ATCC 25923 value for entry CC(C)C12CCC3(COC(=O)c4ccccc4)CCC4(C)C(=C31)C(CC1C3(C)CCC(OC(=O)c5ccccc5)C(C)(C)C3CCC14C)n1c(=O)n(-c3ccccc3)c(=O)n12 (stereo not drawn)
Output line: 10.1

Input line: Entry under review: CC(C)C12CCC3(CO)CCC4(C)C(=C31)C(CC1C3(C)CCC(O)C(C)(C)C3CCC14C)n1c(=O)n(-c3ccccc3)c(=O)n12 (stereo not drawn) . Reported Inhibitory effect (%) S. aureus ATCC 25923?
Output line: 5.7

Input line: I'd like to know its Inhibitory effect (%) S. aureus ATCC 25923. The compound in question is `C=C(C)[C@@H]1CC[C@]2(COC(C)=O)CC[C@]3(C)[C@H](CC[C@@H]4[C@@]5(C)CC[C@H](O)C(C)(C)[C@@H]5CC[C@]43C)[C@@H]12`
Output line: 5.1

Input line: Using the record for C=C(C)[C@@H]1CC[C@]2(COC(=O)C3C(C=C(C)C)C3(C)C)CC[C@]3(C)[C@H](CC[C@@H]4[C@@]5(C)CC[C@H](O)C(C)(C)[C@@H]5CC[C@]43C)[C@@H]12 (stereo partly drawn) , report its Inhibitory effect (%) S. aureus ATCC 25923.
Output line: -23.2

Input line: // query Inhibitory effect (%) S. aureus ATCC 25923 value for entry C=C(C)C1CCC2(C=O)CCC3(C)C(CCC4C5(C)CCC(=O)C(C)(C)C5CCC43C)C12 (stereo not drawn)
Output line: 0.1

Input line: Please report the recorded Inhibitory effect (%) S. aureus ATCC 25923 for CC(C)C12CCC3(COC(=O)C4CCCCC4)CCC4(C)C(=C31)C(CC1C3(C)CCC(OC(=O)C5CCCCC5)C(C)(C)C3CCC14C)n1c(=O)n(C)c(=O)n12 (stereo not drawn) .
Output line: 5.0

Input line: // returns reported Inhibitory effect (%) S. aureus ATCC 25923 for input CCC(=O)OCC12CCC3(C(C)C)C1=C1C(CC4C5(C)CCC(OC(=O)CC)C(C)(C)C5CCC4(C)C1(C)CC2)n1c(=O)n(C)c(=O)n13 (stereo not drawn)
Output line: 0.7

Input line: // lookup Inhibitory effect (%) S. aureus ATCC 25923 for C=C(C)[C@@H]1CC[C@]2(COC(=O)c3ccccc3NC(C)=O)CC[C@]3(C)C(CCC4[C@@]5(C)CC[C@H](O)C(C)(C)C5CC[C@]43C)C12 (stereo partly drawn)
Output line: 100.2

Input line: Value lookup for Inhibitory effect (%) S. aureus ATCC 25923; key = CC(=O)OCC12CCC3(C(C)C)C1=C1C(CC4C5(C)CCC(OC(C)=O)C(C)(C)C5CCC4(C)C1(C)CC2)n1c(=O)n(-c2ccc4c(c2)CCC4)c(=O)n13 (stereo not drawn)
Output line: 6.1
